Test system: Hep3B hepatocellular carcinoma cell line
assay.protocol: MTS cell viability assay (NCI-60 methodology), GI50/LC50, Hep3B
Format: cell-based
settings: Homo sapiens, 48 h, Hep3B cells, 2 days incubation with compound
Classify: Satisfied when GI50 is strictly less than 1000 nM; Not satisfied when GI50 is not.

compound.smiles: CCCOc1ccc(-c2nc(NC(=O)c3ccc([N+](=O)[O-])s3)sc2Oc2ccc(F)cc2)cc1
class: Satisfied
--
compound.smiles: Cc1ccc(-c2nc(NC(=O)Cc3ccc4nc(N)sc4c3)sc2-c2ccc(F)cc2)cc1
class: Not satisfied
--
compound.smiles: CCCCOc1ccc(-c2nc(NC(=O)c3ccc([N+](=O)[O-])s3)sc2-c2ccc(F)cc2)cc1
class: Not satisfied
--
compound.smiles: CC(C)(C)c1ccc(-c2nc(NC(=O)c3ccc([N+](=O)[O-])s3)sc2Oc2ccccc2C(F)(F)F)cc1
class: Satisfied
--
compound.smiles: Nc1nc2ccc(CC(=O)Nc3nc(-c4ccc(Br)cc4)c(-c4ccc(Br)cc4)s3)cc2s1
class: Satisfied
--
compound.smiles: CCOc1cc(OCC)c(-c2nnc(N(C)C(=O)Cc3ccc4nc(N)sc4c3)s2)cn1
class: Satisfied
--
compound.smiles: Cc1ccc(-c2nc(NC(=O)c3ccc([N+](=O)[O-])s3)sc2-c2cc(C(F)(F)F)cc(C(F)(F)F)c2)cc1
class: Satisfied
